These measurements were taken from paper PMC10650464.

- Subject Of Test: human NaV1.8/β3 (Homo sapiens, UniProt Q9Y5Y9)
- Construct: expressed in transfected cells
- Sequence (Q9Y5Y9 whole entry): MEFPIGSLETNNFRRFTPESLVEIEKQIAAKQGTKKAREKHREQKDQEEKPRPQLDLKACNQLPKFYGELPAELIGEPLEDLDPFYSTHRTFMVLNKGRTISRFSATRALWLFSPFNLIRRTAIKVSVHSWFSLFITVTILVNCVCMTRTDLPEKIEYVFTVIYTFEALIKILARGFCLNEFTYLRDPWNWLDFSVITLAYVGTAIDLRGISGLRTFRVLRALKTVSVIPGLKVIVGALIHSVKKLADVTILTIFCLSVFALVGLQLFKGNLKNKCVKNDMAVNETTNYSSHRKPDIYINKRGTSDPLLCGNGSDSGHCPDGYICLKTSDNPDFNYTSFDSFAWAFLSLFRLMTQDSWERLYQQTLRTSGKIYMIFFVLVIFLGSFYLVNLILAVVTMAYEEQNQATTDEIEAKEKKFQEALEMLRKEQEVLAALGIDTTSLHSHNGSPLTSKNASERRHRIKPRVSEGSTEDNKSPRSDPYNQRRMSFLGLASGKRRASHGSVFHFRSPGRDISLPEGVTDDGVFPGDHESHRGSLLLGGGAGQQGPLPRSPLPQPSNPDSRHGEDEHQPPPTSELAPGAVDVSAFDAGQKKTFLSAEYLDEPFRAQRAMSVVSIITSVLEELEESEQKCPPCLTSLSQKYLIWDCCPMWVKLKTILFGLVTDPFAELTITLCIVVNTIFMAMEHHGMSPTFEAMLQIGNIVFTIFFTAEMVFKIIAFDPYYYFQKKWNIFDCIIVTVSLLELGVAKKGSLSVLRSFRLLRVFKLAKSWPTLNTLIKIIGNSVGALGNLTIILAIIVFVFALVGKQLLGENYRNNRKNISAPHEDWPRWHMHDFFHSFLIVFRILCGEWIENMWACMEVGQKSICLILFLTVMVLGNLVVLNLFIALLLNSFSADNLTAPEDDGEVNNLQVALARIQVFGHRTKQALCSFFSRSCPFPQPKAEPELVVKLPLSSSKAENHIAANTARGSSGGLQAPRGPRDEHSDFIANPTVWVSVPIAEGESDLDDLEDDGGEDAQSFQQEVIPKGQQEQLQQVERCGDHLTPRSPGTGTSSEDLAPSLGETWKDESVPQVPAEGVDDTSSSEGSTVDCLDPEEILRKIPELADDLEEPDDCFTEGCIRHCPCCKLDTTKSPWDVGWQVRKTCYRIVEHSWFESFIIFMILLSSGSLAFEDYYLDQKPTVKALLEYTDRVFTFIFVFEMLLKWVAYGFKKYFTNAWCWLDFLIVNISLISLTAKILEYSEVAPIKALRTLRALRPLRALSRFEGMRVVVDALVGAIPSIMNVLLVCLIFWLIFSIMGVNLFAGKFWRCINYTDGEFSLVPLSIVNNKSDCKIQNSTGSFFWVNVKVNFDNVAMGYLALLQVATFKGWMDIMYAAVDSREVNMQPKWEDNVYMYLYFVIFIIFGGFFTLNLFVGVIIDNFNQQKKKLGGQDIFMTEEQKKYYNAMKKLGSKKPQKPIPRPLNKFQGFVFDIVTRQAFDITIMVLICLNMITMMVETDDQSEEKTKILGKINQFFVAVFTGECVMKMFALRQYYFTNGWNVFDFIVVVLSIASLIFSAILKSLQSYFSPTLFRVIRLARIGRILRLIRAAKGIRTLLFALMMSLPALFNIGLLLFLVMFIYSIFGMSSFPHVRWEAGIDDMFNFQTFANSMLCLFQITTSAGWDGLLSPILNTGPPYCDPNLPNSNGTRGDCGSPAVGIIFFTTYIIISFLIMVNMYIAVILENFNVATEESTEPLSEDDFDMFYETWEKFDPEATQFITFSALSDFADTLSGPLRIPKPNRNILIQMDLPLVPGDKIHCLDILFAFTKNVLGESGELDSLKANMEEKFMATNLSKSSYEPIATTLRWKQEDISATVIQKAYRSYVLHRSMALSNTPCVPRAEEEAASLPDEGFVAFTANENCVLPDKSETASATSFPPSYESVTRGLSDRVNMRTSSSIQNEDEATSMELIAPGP
- Sequence (Q9NY72 25-215 partner limits assumed): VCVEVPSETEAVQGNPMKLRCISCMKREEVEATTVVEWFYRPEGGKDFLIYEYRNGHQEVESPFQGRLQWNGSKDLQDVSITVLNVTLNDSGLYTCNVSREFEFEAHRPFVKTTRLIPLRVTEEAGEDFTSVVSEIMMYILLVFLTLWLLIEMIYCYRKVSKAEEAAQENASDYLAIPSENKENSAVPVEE
- Test: Automated whole-cell patch-clamp electrophysiology (QPatch-16), NaV1.8
- Type: cell-based
- Test Settings: 8 s conditioning voltage step to −40 mV to inactivate approximately half of the available channels; CHO cells; mean ± SEM; read-out: IC50, inhibition of NaV1.8 peak current after inactivating conditioning step
Parameter Measured: IC50 (µM)
Only the number, expressed in µM, is required.

CC1(C)NC2Cc3c([nH]c4ccccc34)C3(C)CCC1CC23 (centres unmarked) | 30

QUERY: I'm curious: which IC50 was measured for CC1=CC[C@H]2C[C@@H]1[C@@H](Cc1c[nH]c3ccccc13)NC2(C)C tested on human NaV1.8/β3 (Homo sapiens, UniProt Q9Y5Y9)?
RESULT: 20

====

- Subject Of Test: human NaV1.7/β1 (Homo sapiens, UniProt Q15858)
- Sequence (Q15858 whole entry): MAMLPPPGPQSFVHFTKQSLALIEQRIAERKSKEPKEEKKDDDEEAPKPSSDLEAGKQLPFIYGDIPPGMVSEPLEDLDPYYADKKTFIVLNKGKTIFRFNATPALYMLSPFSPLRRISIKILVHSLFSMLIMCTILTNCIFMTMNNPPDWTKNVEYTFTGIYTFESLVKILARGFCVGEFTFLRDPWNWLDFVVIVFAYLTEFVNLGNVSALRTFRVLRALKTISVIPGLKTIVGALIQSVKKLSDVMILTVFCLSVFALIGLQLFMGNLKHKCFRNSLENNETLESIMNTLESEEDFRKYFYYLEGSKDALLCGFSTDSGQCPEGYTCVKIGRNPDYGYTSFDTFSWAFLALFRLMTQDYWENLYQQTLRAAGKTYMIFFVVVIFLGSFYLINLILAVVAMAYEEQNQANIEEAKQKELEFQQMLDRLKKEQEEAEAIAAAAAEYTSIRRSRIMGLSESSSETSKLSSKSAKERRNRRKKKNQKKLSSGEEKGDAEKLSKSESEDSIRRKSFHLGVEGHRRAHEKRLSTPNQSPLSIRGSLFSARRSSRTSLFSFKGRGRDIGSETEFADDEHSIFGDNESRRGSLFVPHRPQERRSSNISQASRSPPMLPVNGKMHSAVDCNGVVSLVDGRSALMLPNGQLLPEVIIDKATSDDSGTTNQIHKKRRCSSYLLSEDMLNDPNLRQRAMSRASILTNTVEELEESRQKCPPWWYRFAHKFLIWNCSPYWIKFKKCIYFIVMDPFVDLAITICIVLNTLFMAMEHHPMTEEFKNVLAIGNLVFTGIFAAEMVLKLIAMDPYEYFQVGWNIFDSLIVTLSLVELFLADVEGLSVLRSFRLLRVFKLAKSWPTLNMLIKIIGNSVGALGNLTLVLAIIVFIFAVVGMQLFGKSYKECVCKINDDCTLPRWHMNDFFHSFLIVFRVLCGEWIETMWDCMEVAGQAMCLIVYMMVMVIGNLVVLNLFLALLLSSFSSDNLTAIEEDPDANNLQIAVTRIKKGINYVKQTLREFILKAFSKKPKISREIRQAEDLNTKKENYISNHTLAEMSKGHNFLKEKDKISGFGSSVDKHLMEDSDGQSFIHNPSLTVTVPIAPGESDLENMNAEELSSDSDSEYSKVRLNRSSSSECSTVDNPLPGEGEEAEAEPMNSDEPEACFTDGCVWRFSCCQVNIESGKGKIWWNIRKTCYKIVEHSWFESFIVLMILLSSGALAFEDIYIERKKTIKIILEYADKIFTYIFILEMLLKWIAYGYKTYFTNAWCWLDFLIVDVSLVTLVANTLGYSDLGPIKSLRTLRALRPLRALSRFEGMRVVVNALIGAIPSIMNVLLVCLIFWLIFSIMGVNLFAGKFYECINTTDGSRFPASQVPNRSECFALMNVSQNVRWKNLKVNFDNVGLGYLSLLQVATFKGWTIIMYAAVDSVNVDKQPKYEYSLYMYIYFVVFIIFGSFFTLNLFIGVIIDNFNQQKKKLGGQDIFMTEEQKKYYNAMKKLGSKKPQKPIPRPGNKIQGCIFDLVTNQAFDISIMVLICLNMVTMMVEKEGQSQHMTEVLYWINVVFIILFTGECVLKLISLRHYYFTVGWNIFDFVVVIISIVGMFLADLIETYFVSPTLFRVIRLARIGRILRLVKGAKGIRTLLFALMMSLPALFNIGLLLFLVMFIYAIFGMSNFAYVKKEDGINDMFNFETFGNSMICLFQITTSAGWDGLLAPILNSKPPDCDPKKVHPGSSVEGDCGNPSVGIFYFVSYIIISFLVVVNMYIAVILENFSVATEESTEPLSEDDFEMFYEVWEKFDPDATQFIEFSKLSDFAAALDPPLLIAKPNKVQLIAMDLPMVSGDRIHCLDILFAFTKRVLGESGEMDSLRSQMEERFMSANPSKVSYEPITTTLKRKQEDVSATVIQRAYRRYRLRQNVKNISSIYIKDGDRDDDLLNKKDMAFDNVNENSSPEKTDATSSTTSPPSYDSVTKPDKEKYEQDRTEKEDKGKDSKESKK
- Sequence (Q07699 19-218 partner): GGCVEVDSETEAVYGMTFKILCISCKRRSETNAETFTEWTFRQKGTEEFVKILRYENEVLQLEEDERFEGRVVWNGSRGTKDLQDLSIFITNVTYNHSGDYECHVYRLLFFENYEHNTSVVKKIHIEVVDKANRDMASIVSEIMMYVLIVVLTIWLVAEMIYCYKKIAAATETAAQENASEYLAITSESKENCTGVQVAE
- Test: Automated whole-cell patch-clamp electrophysiology (QPatch-16), NaV1.7
- Test Settings: 50 ms voltage step to −20 mV from −90 mV holding potential; HEK293 cells; mean ± SEM; read-out: IC50, inhibition of NaV1.7 peak current
- Experimental: Human embryonic kidney (HEK) 293 cells stably expressing human NaV1.7/β1 (SB Drug Discovery, Glasgow, UK) or Chinese hamster ovary (CHO) cells stably expressing human NaV1.8/β3 in a tetracycline-inducible system were cultured in a minimum essential media (MEM) supplemented with 10% fetal bovine serum (FBS), 2 mM l-glutamine, and selection antibiotics as recommended by the manufacturer. […] The data were plotted and analyzed via GraphPad Prism, version 9.5.1. […]
List of pIC50 values.
# pIC50 = -log10(concentration in molar units)

CC1=CC[C@H]2C[C@@H]1[C@@H](Cc1c[nH]c3ccccc13)NC2(C)C | 4.16

Query compound follows.
QUERY: Tell me the measured pIC50 of CC1(C)NC2Cc3c([nH]c4ccccc34)C3(C)CCC1CC23 (centres unmarked) , please.
RESULT: 4.31
